Assay: Cytotoxicity against human L02 cells assessed as cell growth inhibition incubated for 72 hrs by Cell Titer-Glo assay
measurement label: IC50 at 72 h

Below, each entry is followed by its recorded IC50 at 72 h result.
{"smi": "COc1c(O)c(-c2c[nH]c3ccccc23)c(CC=C(C)C)c(OC)c1-c1c[nH]c2ccccc12", "IC50 at 72 h": "17 µM"}
{"smi": "COc1c(OC)c(-c2c[nH]c3ccc(OCC(=O)c4ccc(Cl)c(Cl)c4)cc23)c(OC)c(OC)c1-c1c[nH]c2ccccc12", "IC50 at 72 h": "> 100 µM"}
{"smi": "COc1c(OC)c(-c2c[nH]c3ccc(OCCN4CCOCC4)cc23)c(OC)c(OC)c1-c1c[nH]c2ccccc12", "IC50 at 72 h": "> 100 µM"}
{"smi": "COc1c(O)c(-c2c[nH]c3ccccc23)c2c(c1-c1c[nH]c3ccccc13)OC(C)(C)C=C2", "IC50 at 72 h": "11 µM"}

Documented IC50 at 72 h of COc1c(OC)c(-c2cn(CCN3CCOCC3)c3ccccc23)c(OC)c(OC)c1-c1c[nH]c2ccccc12 : > 100 µM

Documented IC50 at 72 h of COc1ccc2[nH]cc(-c3c(OC)c(OC)c(-c4c[nH]c5ccc(O)cc45)c(OC)c3OC)c2c1 : > 100 µM

Documented IC50 at 72 h of COc1c(OC)c(-c2c[nH]c3ccc(OCCO[C@@H]4O[C@H](CO)[C@@H](O)[C@H](O)[C@H]4O)cc23)c(OC)c(OC)c1-c1c[nH]c2ccccc12 : > 100 µM

====

Assay: Selectivity index, ratio of IC50 for human L02 cells to IC50 for human MV4-11 cells
Conditions: L02 cells and MV4-11 cells
measurement label: selectivity ratio

{"smi": "COc1c(OC)c(-c2c[nH]c3ccc(OCC(=O)c4ccccc4)cc23)c(OC)c(OC)c1-c1c[nH]c2ccccc12", "measurement label": "selectivity ratio", "readout value": "> 74"}

Documented selectivity ratio of CCOc1ccc2[nH]cc(-c3c(OC)c(OC)c(-c4c[nH]c5ccccc45)c(OC)c3OC)c2c1 : > 500

Documented selectivity ratio of COc1c(OC)c(-c2cn(CCN3CCOCC3)c3ccccc23)c(OC)c(OC)c1-c1c[nH]c2ccccc12 : > 210

====

Assay: Selectivity index, ratio of IC50 for human L02 cells to IC50 for human MV4-11 cells
Settings: L02 cells and MV4-11 cells
measurement label: selectivity ratio

Below, each entry is followed by its recorded selectivity ratio result.
{"smi": "COc1c(OC)c(-c2c[nH]c3ccc(OC4CCCC4)cc23)c(OC)c(OC)c1-c1c[nH]c2ccccc12", "readout value": "> 710"}
{"smi": "COc1c(OC)c(-c2c[nH]c3ccc(O)cc23)c(OC)c(OC)c1-c1c[nH]c2ccccc12", "readout value": "> 8"}
{"smi": "COc1ccc2[nH]cc(-c3c(OC)c(OC)c(-c4c[nH]c5ccc(O)cc45)c(OC)c3OC)c2c1", "readout value": "> 75"}

Documented selectivity ratio of COc1c(OC)c(-c2cn(C3CCCC3)c3ccccc23)c(OC)c(OC)c1-c1c[nH]c2ccccc12 : > 120

Documented selectivity ratio of COc1c(OC)c(-c2c[nH]c3ccc(OCCO[C@@H]4O[C@H](CO)[C@@H](O)[C@H](O)[C@H]4O)cc23)c(OC)c(OC)c1-c1c[nH]c2ccccc12 : > 380

====

Parameter: IC50 at 72 h. Scope: all listed entries.
Assay: Cytotoxicity against human L02 cells assessed as cell growth inhibition incubated for 72 hrs by Cell Titer-Glo assay

{"smi": "COc1c(OC)c(-c2c[nH]c3ccccc23)c(OC)c(OC)c1-c1c[nH]c2ccccc12", "measurement label": "IC50 at 72 h", "readout value": "> 100 µM"}
{"smi": "COc1c(OC)c(-c2c[nH]c3ccc(OC4CCCC4)cc23)c(OC)c(OC)c1-c1c[nH]c2ccccc12", "measurement label": "IC50 at 72 h", "readout value": "> 100 µM"}

Next:
Documented IC50 at 72 h of COc1c(OC)c(-c2cn(C3CCCC3)c3ccccc23)c(OC)c(OC)c1-c1c[nH]c2ccccc12 : > 100 µM

====

Parameter: selectivity ratio. Scope: all listed entries.
Test: Selectivity index, ratio of IC50 for human L02 cells to IC50 for human MV4-11 cells
Settings: L02 cells and MV4-11 cells

Documented selectivity ratio of COc1c(O)c(-c2c[nH]c3ccccc23)c(CC=C(C)C)c(OC)c1-c1c[nH]c2ccccc12 : 9

Documented selectivity ratio of COc1c(OC)c(-c2c[nH]c3ccc(OCC(=O)c4ccc(Cl)c(Cl)c4)cc23)c(OC)c(OC)c1-c1c[nH]c2ccccc12 : > 100

Documented selectivity ratio of COc1c(OC)c(-c2c[nH]c3ccc(OCCN4CCOCC4)cc23)c(OC)c(OC)c1-c1c[nH]c2ccccc12 : > 220
